- method_notes: TGA volatility at 40 degrees Celsius (Example 3)
- Assay type: physicochemical
- condition_context: isothermal at 40° C. for 900 minutes, slope from 800-900 minutes
Assign labels as follows, please: Criterion met for TGA volatility @ 40° C. (weight loss %/min) below 0.01 weight loss %/min; Criterion not met for TGA volatility @ 40° C. (weight loss %/min) equal to or exceeding 0.01 weight loss %/min.

As a guide, the following entries are already answered.
# compound, assigned_class
records = [
    ("CCOC(=O)c1ccccc1I [Ethyl 2-iodobenzoate]", "Criterion met"),
    ("CCOC(=O)CC1CCc2ccccc21 (centres unmarked)", "Criterion met"),
    ("CCOCCCNC(=O)c1ccccc1I [N-(3-ethoxypropyl)-2-iodobenzamide]", "Criterion met"),
]

Hello, is TGA volatility @ 40° C. (weight loss %/min) of the following compound strictly smaller than 0.01 weight loss %/min? CCCC(=O)CCc1ccccc1 Criterion not met

Try the compound CCCCCC(=O)c1ccccc1 Criterion not met

Okay, and COCCC(=O)Oc1ccccc1 [Phenyl 3-methoxypropanoate] ? Criterion not met

Field entry: CCCCCCCCC(C)=O [2-Decanone, reference compound] Criterion not met

Now try CCOC(=O)Cc1cccc(C)c1 [Ethyl m-Tolylacetate] . Criterion not met

How about CCNC(=O)c1cccc(Br)c1 [3-bromo-N-ethylbenzamide] ? Criterion met

Next up: CCN(CC)C(=O)c1cccc(C)c1 [DEET, N,N-diethyl-meta-toluamide, reference compound] Criterion met

Same question for CCOC(=O)CNc1ccccc1C#N [Ethyl 2-(2-Cyanoanilino) acetate] please. Criterion met

These entries and their values trace back to patent US20250287942A1.
